target: human EGFR on cells (A431, NCI-H292, NCI-H322, NCI-H441) (human, UniProt P00533 25-1210); assay: cell-based or functional assay
result.type: pEGFR inhibition in H292 cells IC50 (nM)
Lab book: enter the figure in nM, no units written.

Data request, read-out pEGFR inhibition in H292 cells IC50, for ECB109 (designed binder, not shown: small tags and cut ends, Bispecific: P54AR4-83v23, (AP)5, P114AR7P95-C5v2) MLPAPKNLVVSEVTEDSARLSWDDPHAFYESFLIQYQESEKVGEAIVLTVPGSERSYDLTGLKPGTEYTVSIYGVHNVYKDTNIRGLPLSAIFTTAPAPAPAPAPLPAPKNLVVSRVTEDSARLSWTAPDAAFDSFWIRYFEFLGSGEAIVLTVPGSERSYDLTGLKPGTEYVVNILSVKGGSISPPLSAIFTT
432

Data request, read-out pEGFR inhibition in H292 cells IC50, for ECB106 (designed binder, not shown: small tags and cut ends, Bispecific: P54AR4-83v23, (AP)5, P114AR7P94-A3v22) MLPAPKNLVVSEVTEDSARLSWDDPHAFYESFLIQYQESEKVGEAIVLTVPGSERSYDLTGLKPGTEYTVSIYGVHNVYKDTNIRGLPLSAIFTTAPAPAPAPAPLPAPKNLVVSRVTEDSARLSWTAPDAAFDSFWIRYFEFLGSGEAIVLTVPGSERSYDLTGLKPGTEYVVNILGVKGGKISPPLSAIFTT
367

Data request, read-out pEGFR inhibition in H292 cells IC50, for ECB97 (designed binder, not shown: small tags and cut ends, Bispecific: P54AR4-83v22, (AP)5, P114AR7P95-C5v2) MLPAPKNLVVSEVTEDSARLSWDDPWAFYESFLIQYQESEKVGEAIVLTVPGSERSYDLTGLKPGTEYTVSIYGVHNVYKDTNIRGLPLSAIFTTAPAPAPAPAPLPAPKNLVVSRVTEDSARLSWTAPDAAFDSFWIRYFEFLGSGEAIVLTVPGSERSYDLTGLKPGTEYVVNILSVKGGSISPPLSAIFTT
16.6

Data request, read-out pEGFR inhibition in H292 cells IC50, for ECB108 (designed binder, not shown: small tags and cut ends, Bispecific: P54AR4-83v23, (AP)5, P114AR9P122-A7v2) MLPAPKNLVVSEVTEDSARLSWDDPHAFYESFLIQYQESEKVGEAIVLTVPGSERSYDLTGLKPGTEYTVSIYGVHNVYKDTNIRGLPLSAIFTTAPAPAPAPAPLPAPKNLVVSRVTEDSARLSWTAPDAAFDSFWIRYFEFVSKGDAIVLTVPGSERSYDLTGLKPGTEYVVNILGVKGGSISPPLSAIFTT
814

Data request, read-out pEGFR inhibition in H292 cells IC50, for ECB96 (designed binder, not shown: small tags and cut ends, Bispecific: P54AR4-83v22, (AP)5, P114AR9P122-A7v2) MLPAPKNLVVSEVTEDSARLSWDDPWAFYESFLIQYQESEKVGEAIVLTVPGSERSYDLTGLKPGTEYTVSIYGVHNVYKDTNIRGLPLSAIFTTAPAPAPAPAPLPAPKNLVVSRVTEDSARLSWTAPDAAFDSFWIRYFEFVSKGDAIVLTVPGSERSYDLTGLKPGTEYVVNILGVKGGSISPPLSAIFTT
24.7

Data request, read-out pEGFR inhibition in H292 cells IC50, for ECB95 (designed binder, not shown: small tags and cut ends, Bispecific: P54AR4-83v22, (AP)5, P114AR9P121-A6v2) MLPAPKNLVVSEVTEDSARLSWDDPWAFYESFLIQYQESEKVGEAIVLTVPGSERSYDLTGLKPGTEYTVSIYGVHNVYKDTNIRGLPLSAIFTTAPAPAPAPAPLPAPKNLVVSRVTEDSARLSWTAPDAAFDSFWIRYFEFVGSGEAIVLTVPGSERSYDLTGLKPGTEYVVNILGVKGGSISPPLSAIFTT
13.6
